targetDesc: hMMP-9 (Homo sapiens, UniProt P14780)
Sequence (P14780 94-707): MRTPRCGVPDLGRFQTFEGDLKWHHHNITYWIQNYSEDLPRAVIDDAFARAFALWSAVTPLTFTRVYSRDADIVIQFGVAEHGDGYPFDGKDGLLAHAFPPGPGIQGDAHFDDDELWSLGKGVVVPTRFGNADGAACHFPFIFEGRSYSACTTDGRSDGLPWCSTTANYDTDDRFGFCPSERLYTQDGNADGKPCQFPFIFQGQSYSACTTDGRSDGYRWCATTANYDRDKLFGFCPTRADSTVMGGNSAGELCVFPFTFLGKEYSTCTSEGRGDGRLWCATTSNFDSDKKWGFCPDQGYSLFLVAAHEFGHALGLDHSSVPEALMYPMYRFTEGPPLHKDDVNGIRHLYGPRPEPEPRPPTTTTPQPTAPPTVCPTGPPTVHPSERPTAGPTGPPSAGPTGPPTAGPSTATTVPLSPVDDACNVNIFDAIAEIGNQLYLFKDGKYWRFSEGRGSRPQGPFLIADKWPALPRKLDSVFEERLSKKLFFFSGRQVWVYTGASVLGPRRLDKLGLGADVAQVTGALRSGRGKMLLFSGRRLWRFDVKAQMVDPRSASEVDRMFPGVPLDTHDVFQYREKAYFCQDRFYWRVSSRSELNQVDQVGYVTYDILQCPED
Below, each entry is listed alongside its reported Ki.
measuredParameter: Ki (µM)

compound	unitAnnotation	observedValue
CC1(C)C(=CC=C2CCCC(C=CC3=[N+](CCC[N+](C)(C)C)c4ccc(S(=O)(=O)[O-])cc4C3(C)C)=C2Oc2ccc(CCC(=O)NCCCOCCOCCOCCCNC(=O)C(CCC(=O)[O-])NC(=O)C(CCC(=O)O)NC(=O)C(Cc3cc(-c4cccc(Oc5ccccc5)c4)no3)CP(=O)(O)c3ccc(Br)cc3)cc2)N(CCC[N+](C)(C)C)c2ccc(S(=O)(=O)[O-])cc21 (centres unmarked)	µM	4.9
CC[N+]1=C(/C=C/C=C/C=C2/N(CCCCCC(=O)NCCCOCCOCCOCCCNC(=O)[C@H](CCC(=O)O)NC(=O)[C@H](CCC(=O)O)NC(=O)[C@H](Cc3cc(-c4ccc(-c5cccc(Cl)c5)cc4)no3)CP(=O)(O)c3ccc(Br)cc3)c3ccc4c(S(=O)(=O)[O-])cc(S(=O)(=O)O)cc4c3C2(C)C)C(C)(C)c2c1ccc1c(S(=O)(=O)O)cc(S(=O)(=O)O)cc21	µM	4.17
CC[N+]1=C(/C=C/C=C2/N(CCCCCC(=O)NCCCOCCOCCOCCCNC(=O)[C@H](CCC(=O)O)NC(=O)[C@H](CCC(=O)O)NC(=O)[C@H](Cc3cc(-c4ccc(-c5cccc(Cl)c5)cc4)no3)CP(=O)(O)c3ccc(Br)cc3)c3ccc(S(=O)(=O)[O-])cc3C2(C)C)C(C)(C)c2cc(S(=O)(=O)O)ccc21	µM	8.76
CC1(C)C(/C=C/C2=C(Oc3ccc(CCC(=O)NCCCOCCOCCOCCCNC(=O)[C@H](CCC(=O)[O-])NC(=O)[C@H](CCC(=O)O)NC(=O)[C@H](Cc4cc(-c5ccc(-c6cccc(Cl)c6)cc5)no4)CP(=O)(O)c4ccc(Br)cc4)cc3)C(=C/C=C3/N(CCC[N+](C)(C)C)c4ccc(S(=O)(=O)[O-])cc4C3(C)C)/CCC2)=[N+](CCC[N+](C)(C)C)c2ccc(S(=O)(=O)[O-])cc21	µM	4.79
NC(=O)[C@H](CCC(=O)O)NC(=O)[C@H](CCC(=O)O)NC(=O)[C@H](Cc1cc(-c2ccc(-c3cccc(Cl)c3)cc2)no1)CP(=O)(O)c1ccc(Br)cc1 [RXP470.1, reference compound]	µM	0.17

----------
procedureDetails: Blood levels in apoE-/- mice
Type: in vivo
conditionNotes: mouse, whole blood, intravenous, 1 nmol, 30 min, read-out: Blood level
tissue uptake at 30 min reference

compound	tissue uptake at 30 min (%ID/g)
CC1(C)C(/C=C/C2=C(Oc3ccc(CCC(=O)NCCCOCCOCCOCCCNC(=O)[C@H](CCC(=O)[O-])NC(=O)[C@H](CCC(=O)O)NC(=O)[C@H](Cc4cc(-c5ccc(-c6cccc(Cl)c6)cc5)no4)CP(=O)(O)c4ccc(Br)cc4)cc3)C(=C/C=C3/N(CCC[N+](C)(C)C)c4ccc(S(=O)(=O)[O-])cc4C3(C)C)/CCC2)=[N+](CCC[N+](C)(C)C)c2ccc(S(=O)(=O)[O-])cc21 [probe 3]	2.7
CC1(C)C(=CC=C2CCCC(C=CC3=[N+](CCC[N+](C)(C)C)c4ccc(S(=O)(=O)[O-])cc4C3(C)C)=C2Oc2ccc(CCC(=O)NCCCOCCOCCOCCCNC(=O)C(CCC(=O)[O-])NC(=O)C(CCC(=O)O)NC(=O)C(Cc3cc(-c4cccc(Oc5ccccc5)c4)no3)CP(=O)(O)c3ccc(Br)cc3)cc2)N(CCC[N+](C)(C)C)c2ccc(S(=O)(=O)[O-])cc21 (centres unmarked) [probe 4]	2.4

----------
In what follows, each item is paired with its Ki for hMMP-14 (Homo sapiens).
measuredParameter: Ki (nM)

compound	targetDesc	observedValue
CC1(C)C(/C=C/C2=C(Oc3ccc(CCC(=O)NCCCOCCOCCOCCCNC(=O)[C@H](CCC(=O)[O-])NC(=O)[C@H](CCC(=O)O)NC(=O)[C@H](Cc4cc(-c5ccc(-c6cccc(Cl)c6)cc5)no4)CP(=O)(O)c4ccc(Br)cc4)cc3)C(=C/C=C3/N(CCC[N+](C)(C)C)c4ccc(S(=O)(=O)[O-])cc4C3(C)C)/CCC2)=[N+](CCC[N+](C)(C)C)c2ccc(S(=O)(=O)[O-])cc21	hMMP-14 (Homo sapiens)	1020
NC(=O)[C@H](CCC(=O)O)NC(=O)[C@H](CCC(=O)O)NC(=O)[C@H](Cc1cc(-c2ccc(-c3cccc(Cl)c3)cc2)no1)CP(=O)(O)c1ccc(Br)cc1 [RXP470.1, reference compound]	hMMP-14 (Homo sapiens)	150
CC[N+]1=C(/C=C/C=C2/N(CCCCCC(=O)NCCCOCCOCCOCCCNC(=O)[C@H](CCC(=O)O)NC(=O)[C@H](CCC(=O)O)NC(=O)[C@H](Cc3cc(-c4ccc(-c5cccc(Cl)c5)cc4)no3)CP(=O)(O)c3ccc(Br)cc3)c3ccc(S(=O)(=O)[O-])cc3C2(C)C)C(C)(C)c2cc(S(=O)(=O)O)ccc21	hMMP-14 (Homo sapiens)	802
CC[N+]1=C(/C=C/C=C/C=C2/N(CCCCCC(=O)NCCCOCCOCCOCCCNC(=O)[C@H](CCC(=O)O)NC(=O)[C@H](CCC(=O)O)NC(=O)[C@H](Cc3cc(-c4ccc(-c5cccc(Cl)c5)cc4)no3)CP(=O)(O)c3ccc(Br)cc3)c3ccc4c(S(=O)(=O)[O-])cc(S(=O)(=O)O)cc4c3C2(C)C)C(C)(C)c2c1ccc1c(S(=O)(=O)O)cc(S(=O)(=O)O)cc21	hMMP-14 (Homo sapiens)	1130
CC1(C)C(=CC=C2CCCC(C=CC3=[N+](CCC[N+](C)(C)C)c4ccc(S(=O)(=O)[O-])cc4C3(C)C)=C2Oc2ccc(CCC(=O)NCCCOCCOCCOCCCNC(=O)C(CCC(=O)[O-])NC(=O)C(CCC(=O)O)NC(=O)C(Cc3cc(-c4cccc(Oc5ccccc5)c4)no3)CP(=O)(O)c3ccc(Br)cc3)cc2)N(CCC[N+](C)(C)C)c2ccc(S(=O)(=O)[O-])cc21 (centres unmarked)	hMMP-14 (Homo sapiens)	7860

----------
Consider the following Ki values measured on hMMP-3 (Homo sapiens).
Sequence (P08254 100-477): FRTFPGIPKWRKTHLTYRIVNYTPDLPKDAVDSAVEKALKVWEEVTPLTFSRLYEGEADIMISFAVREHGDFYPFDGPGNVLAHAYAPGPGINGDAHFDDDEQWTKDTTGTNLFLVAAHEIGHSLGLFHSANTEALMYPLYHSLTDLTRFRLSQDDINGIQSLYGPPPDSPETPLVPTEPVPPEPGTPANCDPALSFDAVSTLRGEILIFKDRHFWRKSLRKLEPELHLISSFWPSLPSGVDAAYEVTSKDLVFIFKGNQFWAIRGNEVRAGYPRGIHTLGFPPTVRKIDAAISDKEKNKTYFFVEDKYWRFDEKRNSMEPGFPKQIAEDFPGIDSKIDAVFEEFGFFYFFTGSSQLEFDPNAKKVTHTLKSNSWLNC

compound	targetDesc	Ki, nM
CC[N+]1=C(/C=C/C=C2/N(CCCCCC(=O)NCCCOCCOCCOCCCNC(=O)[C@H](CCC(=O)O)NC(=O)[C@H](CCC(=O)O)NC(=O)[C@H](Cc3cc(-c4ccc(-c5cccc(Cl)c5)cc4)no3)CP(=O)(O)c3ccc(Br)cc3)c3ccc(S(=O)(=O)[O-])cc3C2(C)C)C(C)(C)c2cc(S(=O)(=O)O)ccc21	hMMP-3 (Homo sapiens)	188
CC1(C)C(/C=C/C2=C(Oc3ccc(CCC(=O)NCCCOCCOCCOCCCNC(=O)[C@H](CCC(=O)[O-])NC(=O)[C@H](CCC(=O)O)NC(=O)[C@H](Cc4cc(-c5ccc(-c6cccc(Cl)c6)cc5)no4)CP(=O)(O)c4ccc(Br)cc4)cc3)C(=C/C=C3/N(CCC[N+](C)(C)C)c4ccc(S(=O)(=O)[O-])cc4C3(C)C)/CCC2)=[N+](CCC[N+](C)(C)C)c2ccc(S(=O)(=O)[O-])cc21	hMMP-3 (Homo sapiens)	367
NC(=O)[C@H](CCC(=O)O)NC(=O)[C@H](CCC(=O)O)NC(=O)[C@H](Cc1cc(-c2ccc(-c3cccc(Cl)c3)cc2)no1)CP(=O)(O)c1ccc(Br)cc1 [RXP470.1, reference compound]	hMMP-3 (Homo sapiens)	80

----------
targetDesc: hMMP-7 (Homo sapiens, UniProt P09237)
Sequence (P09237 95-267): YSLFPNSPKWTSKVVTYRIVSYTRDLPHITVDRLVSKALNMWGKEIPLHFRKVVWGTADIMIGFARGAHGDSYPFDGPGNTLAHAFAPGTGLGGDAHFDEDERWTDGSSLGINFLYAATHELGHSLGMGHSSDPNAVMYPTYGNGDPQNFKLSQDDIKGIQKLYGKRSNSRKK
pKi: −log10 of the molar value.
measuredParameter: pKi

compound	observedValue
CC[N+]1=C(/C=C/C=C2/N(CCCCCC(=O)NCCCOCCOCCOCCCNC(=O)[C@H](CCC(=O)O)NC(=O)[C@H](CCC(=O)O)NC(=O)[C@H](Cc3cc(-c4ccc(-c5cccc(Cl)c5)cc4)no3)CP(=O)(O)c3ccc(Br)cc3)c3ccc(S(=O)(=O)[O-])cc3C2(C)C)C(C)(C)c2cc(S(=O)(=O)O)ccc21	5.73
NC(=O)[C@H](CCC(=O)O)NC(=O)[C@H](CCC(=O)O)NC(=O)[C@H](Cc1cc(-c2ccc(-c3cccc(Cl)c3)cc2)no1)CP(=O)(O)c1ccc(Br)cc1 [RXP470.1, reference compound]	6.29
CC1(C)C(=CC=C2CCCC(C=CC3=[N+](CCC[N+](C)(C)C)c4ccc(S(=O)(=O)[O-])cc4C3(C)C)=C2Oc2ccc(CCC(=O)NCCCOCCOCCOCCCNC(=O)C(CCC(=O)[O-])NC(=O)C(CCC(=O)O)NC(=O)C(Cc3cc(-c4cccc(Oc5ccccc5)c4)no3)CP(=O)(O)c3ccc(Br)cc3)cc2)N(CCC[N+](C)(C)C)c2ccc(S(=O)(=O)[O-])cc21 (centres unmarked)	5.01
CC[N+]1=C(/C=C/C=C/C=C2/N(CCCCCC(=O)NCCCOCCOCCOCCCNC(=O)[C@H](CCC(=O)O)NC(=O)[C@H](CCC(=O)O)NC(=O)[C@H](Cc3cc(-c4ccc(-c5cccc(Cl)c5)cc4)no3)CP(=O)(O)c3ccc(Br)cc3)c3ccc4c(S(=O)(=O)[O-])cc(S(=O)(=O)O)cc4c3C2(C)C)C(C)(C)c2c1ccc1c(S(=O)(=O)O)cc(S(=O)(=O)O)cc21	5.79
CC1(C)C(/C=C/C2=C(Oc3ccc(CCC(=O)NCCCOCCOCCOCCCNC(=O)[C@H](CCC(=O)[O-])NC(=O)[C@H](CCC(=O)O)NC(=O)[C@H](Cc4cc(-c5ccc(-c6cccc(Cl)c6)cc5)no4)CP(=O)(O)c4ccc(Br)cc4)cc3)C(=C/C=C3/N(CCC[N+](C)(C)C)c4ccc(S(=O)(=O)[O-])cc4C3(C)C)/CCC2)=[N+](CCC[N+](C)(C)C)c2ccc(S(=O)(=O)[O-])cc21	5.30

Source of measurements: paper PMC5137160
